# tested.on: RP1 peptide/HLA-A*02:01 complex (recombinant) (human, UniProt P16213 21-119 (Pongo pygmaeus entry))
# test.details: SPR
observation.type: binding result

binder	reported.result
AS170036 VL1VH1-VHS57R (scFv) scFv: QSALTQPRSVSGSPGQSVTISCAGTSSDVGSENYVSWYQQHPGKAPKLMIYQVNKRASGVPDRFSGSKSGNTASLTISGLQAEDEADYYCASYRSSDHNIVFGGGTKLTVLGGGGSGGGGSGGGGSEVQLVESGGGLVQPGGSLRLSCAASGFTFSSYAMSWVRQAPGKGLEWVSTINSGTGRPYYADSVKGRFTISRDNSKNTLYLQMNSLRAEDTAVYYCAKNFFDGSWFLGPPAMDYWGQGTLVTVSSHHHHHH	no binding
AS170036 VL1VH1-VHG56F (scFv) scFv: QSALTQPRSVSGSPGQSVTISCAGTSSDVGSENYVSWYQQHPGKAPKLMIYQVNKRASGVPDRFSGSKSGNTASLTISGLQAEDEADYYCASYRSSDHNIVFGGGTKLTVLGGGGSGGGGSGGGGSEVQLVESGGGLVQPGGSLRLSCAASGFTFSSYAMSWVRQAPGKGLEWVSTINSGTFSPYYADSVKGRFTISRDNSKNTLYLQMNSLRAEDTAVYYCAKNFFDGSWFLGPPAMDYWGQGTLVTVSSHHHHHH	no binding
